Ref: ChEMBL document CHEMBL1212913

# pIC50 per record follows
# test-system: Glutamate NMDA receptor; Grin1/Grin2b (Rattus norvegicus, UniProt P35439+Q00960)
# Sequence (Q00960 whole entry, other chains not shown): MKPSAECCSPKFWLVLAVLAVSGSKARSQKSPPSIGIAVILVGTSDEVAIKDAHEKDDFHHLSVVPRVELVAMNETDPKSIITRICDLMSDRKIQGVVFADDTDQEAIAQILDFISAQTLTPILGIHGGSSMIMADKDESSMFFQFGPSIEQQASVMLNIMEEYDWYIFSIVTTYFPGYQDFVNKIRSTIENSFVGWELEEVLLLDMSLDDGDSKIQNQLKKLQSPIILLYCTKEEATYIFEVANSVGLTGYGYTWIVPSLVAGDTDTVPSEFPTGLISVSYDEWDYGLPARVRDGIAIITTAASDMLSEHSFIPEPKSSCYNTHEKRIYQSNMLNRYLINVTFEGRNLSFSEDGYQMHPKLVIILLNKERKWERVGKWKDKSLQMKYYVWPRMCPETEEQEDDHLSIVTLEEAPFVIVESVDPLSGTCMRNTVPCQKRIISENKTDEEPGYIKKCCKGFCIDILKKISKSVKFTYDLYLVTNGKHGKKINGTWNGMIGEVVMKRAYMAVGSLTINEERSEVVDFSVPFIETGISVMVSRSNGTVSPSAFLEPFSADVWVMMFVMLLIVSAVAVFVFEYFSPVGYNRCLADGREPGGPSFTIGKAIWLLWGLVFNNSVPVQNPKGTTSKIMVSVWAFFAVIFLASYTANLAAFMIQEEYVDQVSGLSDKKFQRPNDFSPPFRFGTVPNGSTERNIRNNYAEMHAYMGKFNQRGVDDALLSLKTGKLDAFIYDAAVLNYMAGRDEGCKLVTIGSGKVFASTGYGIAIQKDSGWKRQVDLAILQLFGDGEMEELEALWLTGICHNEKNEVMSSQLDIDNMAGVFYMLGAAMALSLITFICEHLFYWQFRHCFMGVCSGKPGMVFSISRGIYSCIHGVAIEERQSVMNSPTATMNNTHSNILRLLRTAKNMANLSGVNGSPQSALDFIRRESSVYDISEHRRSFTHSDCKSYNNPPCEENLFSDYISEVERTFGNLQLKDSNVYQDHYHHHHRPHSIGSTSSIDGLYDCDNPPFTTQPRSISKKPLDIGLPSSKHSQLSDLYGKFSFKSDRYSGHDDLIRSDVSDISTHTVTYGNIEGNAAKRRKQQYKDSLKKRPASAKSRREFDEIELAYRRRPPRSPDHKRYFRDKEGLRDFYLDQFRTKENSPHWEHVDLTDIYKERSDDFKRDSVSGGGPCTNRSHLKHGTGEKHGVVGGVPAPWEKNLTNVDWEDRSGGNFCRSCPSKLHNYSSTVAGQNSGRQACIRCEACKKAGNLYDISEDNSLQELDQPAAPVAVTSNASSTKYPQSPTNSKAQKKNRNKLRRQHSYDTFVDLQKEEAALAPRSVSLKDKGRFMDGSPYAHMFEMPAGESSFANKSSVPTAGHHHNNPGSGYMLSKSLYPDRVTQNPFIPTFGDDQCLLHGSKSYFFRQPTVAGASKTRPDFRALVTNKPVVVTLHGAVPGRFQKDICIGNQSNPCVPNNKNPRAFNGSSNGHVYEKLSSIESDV
# protocol-text: Antagonist activity at rat recombinant NR1-NR2B receptor expressed in Xenopus oocytes at holding potential of -40mV by two-electrode voltage-clamp electrophysiology
# Type: functional, cell-based, Oocyte
# assay-setup: read-out: IC50
pIC50: −log10 of the molar value.
quantity-name: pIC50

| structure-as-smiles | test-system | quantity-name | value-observed |
| --- | --- | --- | --- |
| Cc1cccc(-n2c(/C=C/c3cccnc3)nc3ccc(I)cc3c2=O)c1 | Glutamate NMDA receptor; Grin1/Grin2b (Rattus norvegicus, UniProt P35439+Q00960) | pIC50 | < 3.52 |
| COc1ccc2nc(/C=C/c3cccc([N+](=O)[O-])c3)n(-c3cccc(C(=O)O)c3)c(=O)c2c1 | Glutamate NMDA receptor; Grin1/Grin2b (Rattus norvegicus, UniProt P35439+Q00960) | pIC50 | < 3.52 |
| O=C(O)c1ccc(-n2c(/C=C/c3ccccc3C(F)(F)F)nc3ccccc3c2=O)cc1 | Glutamate NMDA receptor; Grin1/Grin2b (Rattus norvegicus, UniProt P35439+Q00960) | pIC50 | < 3.52 |
